- SYSTEM UNDER TEST: HA of H3N2 A/Brisbane/10/2007 (influenza A virus)
- ASSAY OVERVIEW: cell-based or functional assay
Catalogue of binders with associated VNA titer

Use these answered entries as a reference point.
>>> result("SD1034 (VHH) VHH: EVQLVESGGGLVQAGGSLRLSCAASGTIFGIRVNTMGWYRQAPGEQRELVATITRSGGTNYADSVKDRFTISGDFAKDTVYLQMMHLKPEDTAVYYCNGRWALTDYWGQGTQVTVSS")
"> 1000 nM"
>>> result("SD1069 (VHH) VHH: EVQLVESGGGLVQAGDSLRLSCAASGPTFGMSAMGWFRQAPGKEREFVAAISGLGNPNYSDDVKGRFTISRENGRNTVYLQMNSLKPEDTAVYYCAQRKVYHVQGGDRPQAYDYWGQGTQVTVSS")
"> 1000 nM"
>>> result("SD1076 (VHH) VHH: EVQLVESGGGLVQAGGSLTLSCAGSGFAFSIATMGWYRQAPGKQRELVADITSGGSTNYADSVKGRFTISRDNAKNTVYLQMNSLKPEDTAVYYCNADSLATGWRQYSYWGKGTQVTVSS")
"> 1000 nM"

Problem: Name the recorded VNA titer of the item SD1017 (VHH) VHH: EVQLVESGGGLVQAGGSLRLSCAASGRTYAMAWFRQAPGKEREFVAHINALGTRAYYSDSVEGRFTISRDNAKNTGYLQMNSLEPEDTAVYVCAAGGQWRAAPVADAAQYDFWGQGTQVTVSS in your answer.
Result: > 1000 nM

Values were extracted from patent US20190359693A1.
